System: PC-3 prostate
Assay: NCI tumour cell line growth inhibition, 48 h; in the data active = GI50 below about 0.43 µM; inactive = the rest
Outcomes: active, inactive

smilesrepresentation=CC1(C)CC[C@]2(C(=O)n3ccnc3)CC[C@]3(C)[C@H](C(=O)C=C4[C@@]5(C)C=C(C#N)C(=O)C(C)(C)[C@@H]5CC[C@]43C)[C@@H]2C1 classlabel=active
smilesrepresentation=O=C(CCc1nnc(-c2c(Cl)cccc2Cl)o1)c1nc2ccccc2[nH]1 classlabel=inactive
smilesrepresentation=C=C1C(=O)O[C@H]2[C@H]1CC/C(COC(=O)/C=C\C(=O)NCc1ccc(Cn3c(=O)sn(-c4ccc(OC)cc4)c3=O)cc1)=C\CC[C@@]1(C)O[C@@H]21 classlabel=inactive
smilesrepresentation=O=S(=O)(O)c1ccc(Cl)cc1.[Cd] classlabel=inactive

====

System: UACC-62 melanoma
Assay: NCI tumour cell line growth inhibition, 48 h; in the data active = GI50 below about 0.43 µM; inactive = the rest
Outcomes: y for active, n for inactive

molecule=O=S(=O)(O)c1ccc(Cl)cc1.[Cd] classlabel=n
molecule="Nc1ncnc2c1c(-c1cccc(OCc3ccccc3)c1)cn2C1CC(CN2CCCC2)C1 (stereo not given)" classlabel=n
molecule=CCOC(=O)c1ccc2c(c1)[n+](=O)c(C(=O)c1ccc3ccccc3c1)c(C(F)(F)F)n2[O-] classlabel=n
molecule=Fc1ccc(-c2ncn(C3CCNCC3)c2-c2ccnc(Oc3ccccc3)n2)cc1 classlabel=n
molecule=COc1ccc2nc3cccc([N+](=O)[O-])c3c(NCCN(CCO)CCO)c2c1 classlabel=y

====

System: NCI-H23 lung
Assay: NCI tumour cell line growth inhibition, 48 h
outcomeMeasure: GI50

compound=C=C1C(=O)O[C@H]2[C@H]1CC/C(COC(=O)/C=C\C(=O)NCc1ccc(Cn3c(=O)sn(-c4ccc(OC)cc4)c3=O)cc1)=C\CC[C@@]1(C)O[C@@H]21 value="0.863 µM"
compound=C#CC[C@@H]1C[C@]2(C)[C@H]3CC[C@@H]4[C@H]5[C@H](C(=C)C)CC[C@]5(C(=O)O)CC[C@@]4(C)[C@]3(C)CC[C@H]2C(C)(C)[C@H]1O value="2.38 µM"
compound=Nc1ccccc1/C=N\Nc1ccccc1 value="> 100 µM"
compound=CN(C)c1ccc(/C=C(\C#N)c2cc3ccccc3n2C)cc1 value="0.56 µM"
compound=O=C(/C=C/C=C/c1ccccc1)c1ccc(Nc2nc(Nc3ccccc3)nc(Nc3ccccc3)n2)cc1 value="> 100 µM"
compound="COc1ccc(C(=O)C(c2ccc(OC)cc2)C2C(=O)Oc3ccccc32)cc1 (centres undefined)" value="> 100 µM"
compound="Cn1cc(C2=C(c3c4n(c5ccccc35)CC(CN)C4)C(=O)NC2=O)c2ccccc21 (centres undefined)" value="4.38 µM"
compound=CC(C)c1ccc2c(N=Nc3ccc(S(N)(=O)=O)cc3)c(O)[nH]c2c1 value="11.1 µM"
compound=Fc1ccc(-c2ncn(C3CCNCC3)c2-c2ccnc(Oc3ccccc3)n2)cc1 value="> 25 µM"

====

Tested on: SN12C renal
Experiment: NCI tumour cell line growth inhibition, 48 h
outcomeMeasure: TGI

compound=CC1(C)CC(=O)C(C(c2cccc(O)c2O)C2C(=O)CC(C)(C)CC2=O)C(=O)C1 outcomemeasure=TGI value="> 100 µM"
compound=C[C@@H](C(=O)O)c1ccc(-c2ccccc2)c(F)c1 outcomemeasure=TGI value="> 100 µM"
compound=C/C(O)=C(/C=N\C(=S)Nc1ccc(Cl)c(Cl)c1)C(=O)Nc1ccccc1C outcomemeasure=TGI value="> 100 µM"
compound="COc1ccc(N2C(=O)C3c4[nH]c5ccccc5c4C4CCCCCCCC4C3C2=O)cc1 (stereo not drawn)" outcomemeasure=TGI value="> 10 µM"
compound="CC(N)C(=O)c1ccc(O)cc1 (stereo not drawn)" outcomemeasure=TGI value="> 100 µM"
compound=COC(=O)CCC(=O)CC(=O)C(=O)Nc1ccc(F)cc1 outcomemeasure=TGI value="> 100 µM"
compound=O=C(O)CN1CCNCCN(CC(=O)O)CCNCC1 outcomemeasure=TGI value="> 100 µM"
compound=Cc1nc2c(=O)[nH]c3ccccc3c2o1 outcomemeasure=TGI value="> 100 µM"
compound="CC(=O)Nc1ccc2c3c(cc(O)c2c1)N(C(=O)CCCC(=O)Nc1ccc2c4c(cc(O)c2c1)N(C(=O)OC(C)(C)C)CC4CCl)CC3CCl (stereo not drawn)" outcomemeasure=TGI value="> 13.2 µM"
compound=COc1cc(C(=O)NC2CCN(C)CC2)ccc1Nc1ncc2c(n1)N(C1CCCC1)CC(F)(F)C(=O)N2C outcomemeasure=TGI value="15 µM"
compound="COc1c(OC(C)=O)c(OC(C)=O)cc2c1-c1ccc(OC)c(=O)cc1C(NC(C)=O)CC2 (stereo not drawn)" outcomemeasure=TGI value="> 100 µM"
compound=Cc1[nH]c2ncn3ncnc3c2c1Cc1ccccc1 outcomemeasure=TGI value="> 100 µM"
compound="CC(=O)c1c2c(cc3c1CC1(Cc4cc5c(cc4C1=O)CCC5)C3)CCC2 (stereo not drawn)" outcomemeasure=TGI value="> 100 µM"
compound=O=C1NCC2(CCN(Cc3ccccc3)CC2)N1 outcomemeasure=TGI value="> 100 µM"
compound=CN(C)c1ccccc1CC(c1c[nH]c2ccccc12)c1c[nH]c2ccccc12 outcomemeasure=TGI value="12.7 µM"
compound=C/C(=N\Nc1ccc2ccccc2n1)c1ccccc1O outcomemeasure=TGI value="> 100 µM"
compound=CCOC(=O)NC(=O)c1cn(CCCCCOC(=O)NCCCCCCNC(=O)OCCCCCn2cc(C(=O)NC(=O)OCC)c(=O)[nH]c2=O)c(=O)[nH]c1=O outcomemeasure=TGI value="> 100 µM"
compound="COC(=O)C(/C(=N/N)C(=O)Nc1ccc(C)c(C)c1)c1nc2ccc(Cl)cc2[nH]c1=O (stereo not drawn)" outcomemeasure=TGI value="> 100 µM"

====

Reported values of TGI for individual entries
System: HCT-15 colon
Test: NCI tumour cell line growth inhibition, 48 h
outcomeMeasure: TGI

compound=CC(=O)Nc1ccc(C2=N/C(=C\c3ccc(Cl)c(Cl)c3)C(=O)O2)cc1 value="> 100 µM"
compound=[N-]=[N+]=Nc1ccccc1-[n+]1noc([O-])c1Br value="> 100 µM"
compound="O=C1OC(c2ccccc2)C2CC3CC4(CCC3CN12)OCCO4 (stereo not given)" value="> 100 µM"
compound=O=C(/C=C/C=C/c1ccccc1)c1ccc(Nc2nc(Nc3ccccc3)nc(Nc3ccccc3)n2)cc1 value="> 100 µM"
compound="O=c1[nH]c(=O)n(C2CC(O)C(COP(=O)(O)OC3CC(n4cc(F)c(=O)[nH]c4=O)OC3COP(=O)(O)OC3CC(n4cc(F)c(=O)[nH]c4=O)OC3COP(=O)(O)OC3CC(n4cc(F)c(=O)[nH]c4=O)OC3COP(=O)(O)OC3CC(n4cc(F)c(=O)[nH]c4=O)OC3COP(=O)(O)OC3CC(n4cc(F)c(=O)[nH]c4=O)OC3COP(=O)(O)OC3CC(n4cc(F)c(=O)[nH]c4=O)OC3COP(=O)(O)OC3CC(n4cc(F)c(=O)[nH]c4=O)OC3COP(=O)(O)OC3CC(n4cc(F)c(=O)[nH]c4=O)OC3COP(=O)(O)OC3CC(n4cc(F)c(=O)[nH]c4=O)OC3CO)O2)cc1F (stereo not given)" value="> 50 µM"

====

System: HOP-92 NSCLC
Assay: NCI tumour cell line growth inhibition, 48 h
Reported values of TGI for individual entries
outcomeMeasure: TGI

compound=Cc1cc(Cl)ccc1NC(=O)/C(Cl)=C(/Cl)C(=O)O outcomemeasure=TGI value="54.5 µM"
compound=Fc1ccc(-c2ncn(C3CCNCC3)c2-c2ccnc(Oc3ccccc3)n2)cc1 outcomemeasure=TGI value="> 25 µM"
compound=COc1cc2c(c(N)c1OC)C(=O)/C(=C/c1cc(C)c(O)c(C)c1)C2 outcomemeasure=TGI value="> 100 µM"
compound=O=C(CC(=O)N(C(=O)c1ccccc1)c1ccc(Cl)cc1)N/N=C\c1ccccc1O outcomemeasure=TGI value="75 µM"
compound="O=C(CC1(O)C(=O)Nc2c(Cl)cccc21)c1ccccc1 (stereo not given)" outcomemeasure=TGI value="> 100 µM"
compound=OCCOCCN1CCN(c2nc(N3CCCC3)c3nc(Cl)c(NCc4ccccc4)nc3n2)CC1 outcomemeasure=TGI value="26.2 µM"
compound=Cc1ccc(Cl)cc1Nc1nc(C(F)(F)F)ccc1C(=O)N/N=C/c1c(Cl)cccc1Cl outcomemeasure=TGI value="6.92 µM"
compound="C=C1C(=O)OC2C[C@H](C)C3CC(=O)C(C)=C3CC12 (stereo not given in full)" outcomemeasure=TGI value="24.1 µM"
compound=COc1ccc(-c2nc(N)c(C#N)c3c2CCSc2ccc(C)cc2-3)cc1OC outcomemeasure=TGI value="55 µM"
compound=CCOC(=O)c1c[nH]c2c(OCc3ccccc3)c3ccccc3c(O)c2c1=O outcomemeasure=TGI value="93.5 µM"

====

Tested on: OVCAR-3 ovarian
Experiment: NCI tumour cell line growth inhibition, 48 h
Reported values of TGI for individual entries
outcomeMeasure: TGI

compound=O=C(N/N=C/c1coc2ccc(Cl)cc2c1=O)c1ccncc1 value="> 100 µM"
compound=COc1ccc(C(=O)/C=C2\c3ccccc3C(=O)N2C)cc1 value="> 100 µM"
compound=CC1=Nc2nc3ccccc3n2C(C)(C)C1 value="> 100 µM"
compound=CC1(C)CC[C@]2(C(=O)n3ccnc3)CC[C@]3(C)[C@H](C(=O)C=C4[C@@]5(C)C=C(C#N)C(=O)C(C)(C)[C@@H]5CC[C@]43C)[C@@H]2C1 value="0.0994 µM"
compound="COc1ccc(CN2C(=O)C(Cc3cc(OC)c(OC)c(C)c3OC)N(C(=O)OC(C)C)C(=O)/C2=C/c2cc(OC)c(OC)c(C)c2OC)cc1 (stereo unspecified)" value="> 100 µM"
compound=SC[C@@H]1COC[C@H](CS)S1 value="> 100 µM"
compound=CN(C)CCSC(=Nc1ccccc1)N1C=COC=C1 value="> 81.8 µM"
compound=O=C(N1CCOCC1)C1(c2ccccc2)CCNCC1 value="> 100 µM"
compound="COCC1C(=O)c2cc3c(cc2C12C=CC1(C=C2)OCCO1)OCO3 (stereo unspecified)" value="26.5 µM"
compound=CCCCCCNC(=O)c1cc(C#Cc2cc(OC)ccc2OC)ccc1OC value="> 100 µM"
compound=COc1ccc2c(C)cc(N/N=C/c3sccc3C)nc2c1 value="10.6 µM"
